Tested on: 786-0 renal
assayDetails: NCI tumour cell line growth inhibition, 384-well format; in the data active = GI50 below about 0.43 µM; inactive = the rest
Residues, ends and D or L forms follow the SMILES beside them. *: point of attachment. Cbz = O=C(OCc1ccccc1)*
Classes used: True (active), False (inactive)

{"molecule": "Cc1ccccc1C(C(=O)NC1CCCCC1)N(C(=O)CNc1ccc(C#N)cc1)c1cccc(F)c1 (centres undefined)", "answerLabel": "False"}
{"molecule": "C=CC(=O)Nc1cccc(Oc2nc(Nc3ccc(N4CCN(C)CC4)cc3OC)ncc2Cl)c1", "answerLabel": "False"}
{"molecule": "CC(C)C[C@@H](C=O)NC(=O)[C@H](CC(C)C)NC(=O)[C@H](CC(C)C)NC(=O)OCc1ccccc1 (Cbz-Leu-Leu-Leu-aldehyde)", "answerLabel": "True"}
{"molecule": "C=CC(=O)N1CC[C@H](n2nc(C#Cc3cc(OC)cc(OC)c3)c3c(N)ncnc32)C1", "answerLabel": "False"}
